- assay_explanation: Lipophilicity, logP of the compound
- condition_label: octanol/water
// reported logP for each item listed
Just the number, please, no unit attached.

A selection of reference data follows.
> print(dat)
                                compound  number
1  CC(OC(F)F)C(F)(F)F (stereo not drawn)    2.47
2        [18F]CCCc1cncc(OC[C@@H]2CCN2)c1    0.86

Next:
Challenge: Item `COC(=O)c1cncn1[C@H](C)c1ccc([18F])cc1` : provide logP
Response given: 1.65

* * *

- assay_explanation: Dissociation constant, pKa of the compound
- Type: physicochemical
value_type: pKa
Enter the number alone.

> print(dat)
                                   compound  number
1             [18F]c1ccc2cnn(N=C3NCCN3)c2c1    7.94
2  CCCc1cc(Cl)cc2[nH]c(=O)c(-c3cccc(O[11CH3])c3)c(O)c12    9.06
3    [18F]c1ccc(-c2nnc(N3CCN4CCC3CC4)o2)cc1    8.44
4      [11CH3]c1ccc(OC(=O)N2CCN3CCC2CC3)cc1    8.19
5  Cc1cn([C@H]2C[C@H]([18F])[C@@H](CO)O2)c(=O)[nH]c1=O    13.7
6  [11CH3]C(=O)c1ccc2c(c1)CCN(CCCCc1ccccc1)CC2O (stereo not given)    8.78

Challenge: Name the recorded pKa of the compound listed here: `[11CH3]OCc1cccnc1N1CCN(C[C@H]2COc3ccccc3O2)CC1`
Response given: 7.23

* * *

- assay_explanation: Dissociation constant, pKa of the compound
- Type: physicochemical
value_type: pKa
Form rule: numeric answer, no unit written next to it.

Record excerpt, results attached:
> print(dat)
                                smiles.repr  number
1  N[11C](=O)c1ccc(Oc2ccc(CN3CCC[C@H]3c3cccnc3)cc2)c(Cl)c1    8.45
2  CCN(CC)C[C@@H]1CN(C(=O)CO[11CH3])CCN1C(=O)Cc1ccc(C)c(C)c1     8.6
3         [18F]CCCc1cncc(OC[C@@H]2C=CCN2)c1    8.21

Challenge: Note down pKa recorded for `C[C@H](c1ccccc1)n1cncc1C(=O)OCC[18F]`
Response given: 3.83

Challenge: Return pKa for the following compound: `CN1CC=C[C@H]1COc1cccnc1[18F]`
Response given: 8.09

Challenge: Look up pKa of `CCOC(=O)c1ncn2c1CN([11CH3])C(=O)c1cc(F)ccc1-2` and report it.
Response given: 0.86

* * *

- assay_explanation: Dissociation constant, pKa of the compound
- Type: physicochemical
value_type: pKa

> print(dat)
                                smiles.repr  result
1  CCOC(=O)c1ncn2c1CN([11CH3])C(=O)c1cc(N=[N+]=[N-])ccc1-2    8.45
2                 [18F]c1ncccc1OC[C@H]1CCN1    8.95
3  CCN(CCF)C[C@@H]1CN(C(=O)CO[11CH3])CCN1C(=O)Cc1ccc(C)c(C)c1    7.51

Challenge: Identify measured pKa associated with `CCOC(=O)c1ncn2c1CN(C)C(=O)c1cc([18F])ccc1-2`
Response given: 0.86

Challenge: Let me know recorded pKa for `COC(=O)c1cncn1[C@H](C)c1ccc([18F])cc1` , thanks.
Response given: 4.08

Challenge: State its pKa: `C[11CH2]OC(=O)c1cncn1[C@H](C)c1ccccc1`
Response given: 4.23

Challenge: Return value of pKa for input `[11CH3]n1c2c(c3ccccc31)C[C@@]1(O)[C@H]3Cc4ccc(O)c5c4[C@@]1(CCN3CC1CC1)[C@H]2O5` , no commentary.
Response given: 14.2
